B1: KCNK9 (parent)
chain: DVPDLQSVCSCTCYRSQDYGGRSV

Variants of: B1
experiment_notes: protein stability index of a GFP-peptide fusion (GPS, HEK-293T) (PSI 1-6); higher = more stable;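 also: lentivirally expressed fusions sorted by FACS into six bins by GFP to DsRed ratio, PSI derived from sequencing read proportions per bin multiplied by bin number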
test_parameters: c terminus: a fixed tail appended
reported_metric: protein stability index

Example cases with answers are listed next.
DVPDLQSVCSCTCYWSQDYGGRSV [R15W]	2.21
DVPDSQSVCSCTCYRSQDYGGRSV [L5S]	1.41
DVPDLQSVCSCLCYRSQDYGGRSV [T12L]	1.3
DMPDLQSVCSCTCYRSQDYGGRSV [V2M]	2.31
DVADLQSVCSCTCYRSQDYGGRSV [P3A]	1.34

Tell me the measured protein stability index of DVPDLQSVCSCTCYRGQDYGGRSV [S16G] , please. 1.07

Tell me the measured protein stability index of DVPFLQSVCSCTCYRSQDYGGRSV [D4F] , please. 1.4
